- subject_of_test: recombinant H5N1 VN/04 HA trimer (hemagglutinin ectodomain of A/Vietnam/1203/2004) (influenza A virus A/Vietnam/1203/2004 (H5N1))
- procedure_details: ELISA, coated HA

binder	units_of_measure	EC50
S06 (antibody, V domains shown) VH: EVQLVESGGGLVQPGGSLRLSCAASGFTIGGGWIHWVRQAPGKGLEWVAFIGPYGGSTFYADSVKGRFTISADTSKNTAYLQMNSLRAEDTAVYYCARFNFGFWNHMDYWGQGTLVTVSS VL: DIQMTQSPSSLSASVGDRVTITCRASQDVSSWVAWYQQKPGKAPKLLIYGTTFLHSGVPSRFSGSGSGTDFTLTISSLQPEDFATYYCQQYYNGPLTFGQGTKVEIKR	µg/mL	0.311
S48 (antibody, V domains shown) VH: EVQLVESGGGLVQPGGSLRLSCAVSGFTIGDGSIHWVRQAPGKGLEWVASIGPYGGSTYYADSVKGRFTISADTSKNTAYLQMNSLRAEDTAVYYCARFHYGYWNNMDYWGQGTLVTVSS VL: DIQMTQSPSSLSASVGDRVTITCRASQDVGWWVAWYQQKPGKAPKLLIYGTRWLYSGVPSRFSGSGSGTDFTLTISSVQPEDFATYYCQQYYSGPITFGQGTKVEIKR	µg/mL	0.0737
P44 (antibody, V domains shown) VH: EVQLVESGGGLVQPGGSLRLSCAASGFTIDGWWIHWVRQAPGKGLEWVAGIWPFGGFTSYADSVKGRFTISADTSKNTAYLQMNSLRAEDTAVYYCARSYSGYSGDYWGQGTLVTVSS VL: DIQMTQSPSSLSASVGDRVTITCRASQDVNNNVAWYQQKPGKAPKLLIYWSSSLYSGVPSRFSGSGSGTDFTLTISSLQPEDFATYYCQQYYNFPVTFGQGTKVEIKR	µg/mL	0.1
